Type: in vitro ADME
stated conditions: rat, plasma
Residues, ends and D or L forms follow the SMILES beside them. *: point of attachment. DOTA = O=C(O)CN1CCN(CC(=O)O)CCN(CC(=O)*)CCN(CC(=O)O)CC1; AEEA = NCCOCCOCC(=O)O
Listing of recorded remaining at 4 h by entry.
Quick note: give the figure in %, leave out the unit.

compound	remaining at 4 h [%]
NCCCC[C@H](NC(=O)CNC(=O)CNC(=O)CNC(=O)CNC(=O)COCCOCCNC(=O)CN1CCN(CC(=O)O)CCN(CC(=O)O)CCN(CC(=O)O)CC1)C(=O)NCC(=O)NCC(=O)NCC(=O)NCC(=O)O [^68Ga-DOTAVAP-PEG-P1, metal not drawn] ({DOTA-AEEA}-GGGGKGGGG-OH)	90

Proceed to the following item.
q: What value of remaining at 4 h has been reported for the following compound? NCCCC[C@H](NC(=O)CNC(=O)CNC(=O)CNC(=O)CNC(=O)CN1CCN(CC(=O)O)CCN(CC(=O)O)CCN(CC(=O)O)CC1)C(=O)NCC(=O)NCC(=O)NCC(=O)NCC(=O)O [^68Ga-DOTAVAP-P1, metal not drawn] ({DOTA}-GGGGKGGGG-OH)
a: 82
